Reference source: paper PMC4094269

target: PARP-1 (Homo sapiens, UniProt P09874); assay: PARP-1 inhibition assay; format: biochemical
Sequence (P09874 whole entry): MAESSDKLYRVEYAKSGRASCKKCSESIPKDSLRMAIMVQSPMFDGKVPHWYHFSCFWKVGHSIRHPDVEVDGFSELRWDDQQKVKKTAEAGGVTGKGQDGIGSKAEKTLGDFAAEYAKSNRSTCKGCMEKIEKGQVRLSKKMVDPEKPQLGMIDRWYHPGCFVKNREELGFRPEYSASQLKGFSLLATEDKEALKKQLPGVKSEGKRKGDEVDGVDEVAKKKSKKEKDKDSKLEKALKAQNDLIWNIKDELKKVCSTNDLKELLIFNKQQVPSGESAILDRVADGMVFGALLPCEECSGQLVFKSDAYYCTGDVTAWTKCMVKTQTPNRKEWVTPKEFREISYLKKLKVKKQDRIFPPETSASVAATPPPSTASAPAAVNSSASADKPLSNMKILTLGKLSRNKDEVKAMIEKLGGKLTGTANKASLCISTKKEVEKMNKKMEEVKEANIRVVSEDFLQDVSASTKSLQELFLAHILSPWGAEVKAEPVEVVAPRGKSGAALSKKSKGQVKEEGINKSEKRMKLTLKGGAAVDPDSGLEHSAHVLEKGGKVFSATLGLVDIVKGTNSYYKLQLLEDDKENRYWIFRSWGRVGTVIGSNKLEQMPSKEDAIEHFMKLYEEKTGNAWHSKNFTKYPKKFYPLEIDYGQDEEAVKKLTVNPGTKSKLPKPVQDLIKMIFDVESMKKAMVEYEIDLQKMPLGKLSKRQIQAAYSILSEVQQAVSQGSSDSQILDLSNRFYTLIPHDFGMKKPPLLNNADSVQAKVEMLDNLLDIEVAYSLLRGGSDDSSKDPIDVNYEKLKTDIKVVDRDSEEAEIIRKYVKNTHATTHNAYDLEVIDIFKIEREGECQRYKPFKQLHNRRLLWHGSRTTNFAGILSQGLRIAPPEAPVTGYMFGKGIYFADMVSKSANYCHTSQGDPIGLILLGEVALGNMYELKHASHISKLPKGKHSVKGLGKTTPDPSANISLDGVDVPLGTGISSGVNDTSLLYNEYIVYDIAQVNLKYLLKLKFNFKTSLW
assay_endpoint: PARP-1 inhibition, result in words

Briefly, PARP-1 inhibition, result in words measured for CC1Cc2cc([N+](=O)[O-])cc(C(N)=O)c2O1 (stereo not shown) [Compound 14] : inactive

Briefly, PARP-1 inhibition, result in words measured for Cc1cc2c(c(C(N)=O)c1)OC(C)C2 (stereo not shown) [Compound 13b] : inactive

Briefly, PARP-1 inhibition, result in words measured for CC1Cc2cc(N)cc(C(N)=O)c2O1 (stereo not shown) [Compound 15] : inactive
